# Assay System: T1, human OX40-FC-biotin (human OX40 recombinant protein with Fc tag, Acro Biosystems OX40-H5255, labeled with … (human, UniProt P43489 29-216, labeled with biotin (site not stated)))
# T1 construct: range 29-216; Bought (Acro Biosystems OX40-H5255; printed once as OXO-H5255), expressed in HEK293; also called human Bio-OX40-FC; not shown: Fc tag of the bought protein
# T1 sequence (looked up): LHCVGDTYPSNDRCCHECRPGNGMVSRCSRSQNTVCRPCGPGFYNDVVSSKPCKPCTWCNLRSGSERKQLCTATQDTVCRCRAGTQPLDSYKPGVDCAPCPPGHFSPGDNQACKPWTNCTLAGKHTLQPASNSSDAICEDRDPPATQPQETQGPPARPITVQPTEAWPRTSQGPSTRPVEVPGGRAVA
# Test Description: capture ELISA, biotin-OX40-Fc
Assay Metric: binding result

Binder	Assay Value
humanized antibody hu4B5-V2 (antibody, human IgG1, V domains shown, hu4B5 VH1 + hu4B5 VL0; human IgG1 / human Kappa constant regions) VH: QVQLQESGPGLVKPSETLSLTCTVSGFSLTSYGLHWIRQPPGKGLEWIGVIWSGGSTDYNAAFISRVTISKEDSKNQFSLKLSSVTAADTAVYYCAREEYDVWGQGTTVTVSS VL: DIQMTQSPSSLSASVGDRVTITCRASQDISNYLNWYQQKPGKVPKLLIYYTSRLHSGVPSRFSGSGSGTDFTLTISSLQPEDVATYYCQQGNTLPWTFGGGTKVEIK	binds
humanized antibody hu4B5-V21 (antibody, human IgG1, V domains shown, hu4B5 VH3 + hu4B5 VL3; human IgG1 / human Kappa constant regions) VH: QVQLKESGPGLVKPSETLSLTCTVSGFSLTSYGLHWFRQPPGKGLEWIGVIWSGGSTDYNAAFISRVTISKEDSKSQVSLKLSSVTAADTAVYYCAREEYDVWGQGTTVTVSS VL: DIQMTQSPSSLSASVGDRVTITCRASQDISNYLNWYQQKPGGVPKLLIYYTSRLHSGVPSRFSGSGSGTDYTLTISSLQQEDVATYYCQQGNTLPWTFGGGTKVEIK	binds
humanized antibody hu4B5-V25 (antibody, human IgG1, V domains shown, hu4B5 VH3 + hu4B5 VL4; human IgG1 / human Kappa constant regions) VH: QVQLKESGPGLVKPSETLSLTCTVSGFSLTSYGLHWFRQPPGKGLEWIGVIWSGGSTDYNAAFISRVTISKEDSKSQVSLKLSSVTAADTAVYYCAREEYDVWGQGTTVTVSS VL: DIQMTQSPSSLSASVGDRVTITCRASQDISNYLNWYQQKPGGTVKLLIYYTSRLHSGVPSRFSGSGSGTDYTLTISSLQPEDVATYFCQQGNTLPWTFGGGTKVEIK	binds

Each recorded value in this set is attributed to patent US20210355229A1.
